// provenance: PubChem BioAssay (NCI)

System: HCT-15 colon
TEST PROTOCOL: NCI-60 one-dose screen, 48 h (100 = growth as untreated, 0 = no growth, -100 = all killed)
CONDITION SET: 10 µM
Compounds without any hit were thinned out: in the full panel of roughly 83,000, 20% have a hit.
Exercise: for every item that follows, state its recorded growth.
Answer in %, number only, no unit symbol.

### Prompt Report growth for Cc1ccc2nc(COc3ccc(C(=O)NNC(=S)NC(=O)c4ccccc4)cc3)[nH]c2c1 please.
### Response 14.9

### Prompt Report growth for O=C(Nc1ccc(Cl)c(C(F)(F)F)c1)c1cncc(C#Cc2cnc3ccc(N4CCOCC4)nn23)c1 please.
### Response 15.8

### Prompt Report growth for COc1ccc2cc([C@H](C)C(=O)NCc3ccccc3)ccc2c1 please.
### Response 29.1

### Prompt Report growth for COc1ccccc1NCc1ccc(CO)n1-c1ccc(C)cc1 please.
### Response 96.7

### Prompt Report growth for CCCn1c(=O)c2[nH]c(-c3ccc(OCc4nc5ccc(F)cc5[nH]4)cc3)nc2n(CCC)c1=O please.
### Response 28.7

### Prompt Report growth for COc1ccc(N(C)c2cc(C#N)nc3ccccc23)cc1/C=C/C(=O)NO please.
### Response -59.4

### Prompt Report growth for COc1ccc(C(=O)NC(=S)N2CCN(c3ncnc4c3cnn4-c3ccccc3)CC2)cc1 please.
### Response 42.7

### Prompt Report growth for Cc1ccc(/C=C/C(=O)c2ccc(S(=O)(=O)NCCNc3nc(Nc4ccc(F)cc4)nc(N(C)C)n3)cc2)cc1 please.
### Response -46.4

### Prompt Report growth for Cc1ccc(-c2cc(C(=O)N=Nc3c(O)[nH]c4ccc(Br)cc34)c3ccccc3n2)cc1 please.
### Response 8.77
